Reported koff values follow for various binders
Target: T1, recombinant human IL-23R/Fc chimera (R&D Systems) (human, UniProt Q5VWK5 24-355)
T1 construct: Bought; also called rhIL23RFc
T1 sequence (looked up): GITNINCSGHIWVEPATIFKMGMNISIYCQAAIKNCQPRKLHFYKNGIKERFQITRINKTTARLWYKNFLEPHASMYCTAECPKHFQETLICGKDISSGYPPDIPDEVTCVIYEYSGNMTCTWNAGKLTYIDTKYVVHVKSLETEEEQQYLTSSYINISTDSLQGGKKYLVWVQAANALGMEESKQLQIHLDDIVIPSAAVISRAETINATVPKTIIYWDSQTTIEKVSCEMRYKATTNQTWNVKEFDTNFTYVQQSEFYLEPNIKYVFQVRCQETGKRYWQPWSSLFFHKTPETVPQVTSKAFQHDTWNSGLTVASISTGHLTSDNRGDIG
Experiment: SPR
Enter your answer as a number in s⁻¹; do not include the unit.

Entry 101-80-5E8 ATRIMER complex (designed binder) EPPTQKPKKIVNAKKDVVNTKMFEELKSRLDTLAQEVALLKEQQALQTVCLKGTKVHMKCFLAFTQTKTFHEASEDCISRGGTLSTPQTGSENDALYEYLRQSVGNEAEIWLGLNGSALTNTWVDMTGARIAYKNWEPPEPLHPMGGFGVFGENCAVLSGAANGKWFDKRCRDQLPYICQFGIV , koff reported as 0.000391

Entry 056-41.B9B ATRIMER complex (designed binder, not shown: C-terminal tag: His/Myc (pANA4) or HA-StrepII (pANA10)) EPPTQKPKKIVNAKKDVVNTKMFEELKSRLDTLAQEVALLKEQQALQTVCLKGTKVHMKCFLAFTQTKTFHEASEDCISRGGTLSTPQTGSENDALYEYLRQSVGNEAEIWLGLNAPPDLGLWVDMTGARIAYKNWETEITAQPDGGWGVWGENCAVLSGAANGKWFDKRCRDQLPYICQFGIV , koff reported as 0.000478
